Values were extracted from PubChem BioAssay (NCI).

molecules and their reported TGI
- Tested on: OVCAR-5 ovarian
- method_notes: NCI tumour cell line growth inhibition, 48 h

COc1ccccc1NC(=S)Nc1ccccn1; > 100 µM
COC(=O)C(C(=O)C(=O)Nc1nc2ccc(OC)cc2s1)c1cnc2ccccc2n1 (centres undefined); > 100 µM
C=CC(=O)N1CCN(c2nc(OC[C@@H]3CCCN3C)nc3c(F)c(-c4nc(N)cc(C)c4C(F)(F)F)c(Cl)cc23)[C@@H](C)C1; 21.7 µM

Item O=C1CSc2ccnc(=O)n21 with OVCAR-5 ovarian - TGI?
> 100 µM

Further, for O=C1C2C3C=CC(C2C(=O)N1CN1CCOCC1)C1C2C(=O)N(CN4CCOCC4)C(=O)C2C31 (centres undefined) ?
> 92.7 µM

Further, for CC(Oc1ccc(Cl)cc1Cl)C(=O)NN1C(=O)CC(=O)NC1=S (centres undefined) ?
> 100 µM
